- ASSAY_TARGET: 5HT3A receptors (serotonin 3A receptors) (Homo sapiens, UniProt P46098)
- Construct: expressed in transfected cells
- Sequence (P46098 24-478): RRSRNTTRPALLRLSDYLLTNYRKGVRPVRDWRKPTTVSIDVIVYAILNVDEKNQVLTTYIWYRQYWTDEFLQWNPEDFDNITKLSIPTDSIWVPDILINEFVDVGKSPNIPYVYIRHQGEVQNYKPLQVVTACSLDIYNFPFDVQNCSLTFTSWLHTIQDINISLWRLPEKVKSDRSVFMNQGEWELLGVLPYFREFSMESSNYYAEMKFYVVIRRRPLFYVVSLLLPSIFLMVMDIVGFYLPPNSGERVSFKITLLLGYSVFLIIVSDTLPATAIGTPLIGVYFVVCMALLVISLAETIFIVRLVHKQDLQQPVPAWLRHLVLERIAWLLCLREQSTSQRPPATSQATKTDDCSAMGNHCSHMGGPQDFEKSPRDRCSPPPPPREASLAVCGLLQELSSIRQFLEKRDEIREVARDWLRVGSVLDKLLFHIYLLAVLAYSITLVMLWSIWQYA
- TEST: Competition binding assay (serotonin 3A receptors), [3H]GR65630
- DETAILS: [3H]GR65630 competition, HEK 293 membranes expressing 5HT3A; read-out: IC50
pIC50: −log10 of the molar value.
Reported pIC50 values are given for each entry in this list.
READOUT_TYPE: pIC50

>>> val("CCN(CCNC(=O)c1cc(Cl)c(N)cc1OC)CCOCCOCCOC [mPEG3-N-Metoclopramide]")
3.80
>>> val("CCN(CCNC(=O)c1cc(Cl)c(N)cc1OC)CCOCCOCCOCCOCCOC [mPEG5-N-Metoclopramide]")
2.97
>>> val("CCN(CCNC(=O)c1cc(Cl)c(N)cc1OC)CCOCCOCCOCCOCCOCCOC [mPEG6-N-Metoclopramide]")
3.05

====

- System: human hepatocytes
- TEST: MetID determination in human hepatocytes
- Type: in vitro ADME
- DETAILS: human hepatocytes
READOUT_TYPE: extent of metabolism in human hepatocytes

>>> val("CCN(CCNC(=O)c1cc(Cl)c(N)cc1OC)CCOC [mPEG1-N-Metoclopramide]")
"low metabolism"
>>> val("CCN(CCNC(=O)c1cc(Cl)c(N)cc1OC)CCOCCOCCOCCOC [mPEG4-N-Metoclopramide]")
"low metabolism"

====

Item-by-item account of % of Total Metabolism, Human Hep 4 hr
- Tested on: human hepatocytes
- TEST: MetID determination in human hepatocytes
- Format: in vitro ADME
- DETAILS: incubation of 10 μM mPEG8-N-metoclopramide; parent and its metabolites M (FIG. 4)
READOUT_TYPE: % of Total Metabolism, Human Hep 4 hr (%)

>>> val("CCN(CCNC(=O)c1cc(Cl)c(N)cc1OC)CCOCCOCCOCCOCCOCCOCCOCCOC [mPEG8-N-Metoclopramide]")
94.8
>>> val("CCN(CCNC(=O)c1cc(Cl)c(N)cc1OC)CCOCCOCCOCCO [M13]")
2.7

====

- ASSAY_TARGET: serotonin 4 receptor (5HT4) (Homo sapiens)
- Sequence (Q13639 whole entry, species assumed): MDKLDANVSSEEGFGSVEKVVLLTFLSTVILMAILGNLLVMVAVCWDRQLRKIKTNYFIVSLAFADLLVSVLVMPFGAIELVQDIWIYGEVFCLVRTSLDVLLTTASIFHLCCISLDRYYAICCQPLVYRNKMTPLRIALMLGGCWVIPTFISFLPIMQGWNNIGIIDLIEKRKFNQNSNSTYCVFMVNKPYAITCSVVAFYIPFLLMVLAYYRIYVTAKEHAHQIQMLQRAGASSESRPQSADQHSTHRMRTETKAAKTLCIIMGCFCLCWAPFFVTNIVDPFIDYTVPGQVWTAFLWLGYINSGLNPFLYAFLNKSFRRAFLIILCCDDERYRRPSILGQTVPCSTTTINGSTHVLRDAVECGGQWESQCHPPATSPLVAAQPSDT
- TEST: cAMP accumulation assay (serotonin 4 receptors)
- DETAILS: cAMP accumulation, CHO-K1 cells stably expressing 5HT4
READOUT_TYPE: IC50 (nM)

>>> val("CCN(CCNC(=O)c1cc(Cl)c(N)cc1OC)CCOC [mPEG1-N-Metoclopramide]")
1590

====

Tmax listing for selected compounds.
- TEST: in vivo
- DETAILS: male, Sprague Dawley, rat, plasma, po, 2.5 mg/kg
READOUT_TYPE: Tmax (min)

>>> val("CCN(CC)CCNC(=O)c1cc(Cl)c(N)cc1OC [Metoclopramide, reference compound]")
22.8
>>> val("CCN(CCNC(=O)c1cc(Cl)c(N)cc1OC)CCOC [mPEG1-N-Metoclopramide]")
4.8
>>> val("CCN(CCNC(=O)c1cc(Cl)c(N)cc1OC)CCOCCOCCOCCOC [mPEG4-N-Metoclopramide]")
120

====

- TEST: in vivo
- DETAILS: male, Sprague Dawley, rat, plasma, po, 2.5 mg/kg
Recorded CL/F by entry
READOUT_TYPE: CL/F (mL/min/kg)

>>> val("CCN(CCNC(=O)c1cc(Cl)c(N)cc1OC)CCOC [mPEG1-N-Metoclopramide]")
1550
>>> val("CCN(CC)CCNC(=O)c1cc(Cl)c(N)cc1OC [Metoclopramide, reference compound]")
131
